- Tested on: ScHof1
- Measurement notes: SPOT peptide array binding signal intensity (averaged, normalized) (arbitrary units (background-subtracted, floor 0; scale differs between SH3 domains)); higher = stronger binding of the SH3 domain to the peptide
Please mark label 1 if the recorded SPOT peptide array binding signal intensity is equal to or greater than 4, and label 0 if it falls below.

INSERT INTO assay_data (binder, label_value) VALUES
  ('YRRKSIPFAPHQITA', 'label 0'),
  ('LPPPPPPPPPPPLPQ', 'label 1'),
  ('IRMPSNPALPKKLLN', 'label 1'),
  ('NAGIRPKFILALNDE', 'label 0'),
  ('TKFRISLGLPVGAIM', 'label 0'),
  ('APPPPPRRATPEKKP', 'label 1'),
  ('VLRFLGFPLPIFEKG', 'label 0'),
  ('LLLLFVPDSPYDPAI', 'label 0'),
  ('PPIPIVPSSPAPPLP', 'label 0'),
  ('TYNRTAFQIPGDQSI', 'label 0'),
  ('NILKRRPLKLEAPSK', 'label 0'),
  ('QPPLPSSAPPIPTSH', 'label 0'),
  ('GDHPKGPPPPPPPDE', 'label 0'),
  ('KTRLRPAFIQQLWSS', 'label 1'),
  ('IAPIPMPKPNPTHIS', 'label 0');
